Assay: Pharmacokinetic study, half-life
Conditions: in vivo, sc; subcutaneously, 50 mg/kg
PARAMETER: half-life (h)
Entry rule: numbers only, all in h.

Prompt line: Please supply the value of reported half-life for the item CC(C)[C@@H](CC[C@@H](C)[C@H]1CC[C@H]2[C@@H]3[C@H](O)C[C@H]4C[C@@H](NCCCNCCCCN)CC[C@]4(C)[C@H]3CC[C@]12C)OS(=O)(=O)O
Response line: 5.6

---

Test: Pharmacokinetic study, half-life
Settings: in vivo, iv; intravenously, 10 mg/kg
Method: A pharmacokinetic study of squalamine was performed to ascertain the residence time of squalamine in the body. FIGS. 6a to 6c illustrate the test results where squalamine was administered subcutaneously (50 mg/kg, FIG. 6a), intraperitoneally (dose 240 μg; 10 mg/kg, FIG. 6b), and intravenously (10 mg/kg, FIG. 6c).
PARAMETER: half-life (min)
Entry rule: numbers only, all in min.

Prompt line: Please supply the value of reported half-life for the item CC(C)[C@@H](CC[C@@H](C)[C@H]1CC[C@H]2[C@@H]3[C@H](O)C[C@H]4C[C@@H](NCCCNCCCCN)CC[C@]4(C)[C@H]3CC[C@]12C)OS(=O)(=O)O
Response line: 35

Data origin, for the record: patent US6596712B2
